All figures here come from paper PMC9829398.

- System: FER‐CD (Arabidopsis thaliana)
- Sequence (Q9SCZ4 469-895): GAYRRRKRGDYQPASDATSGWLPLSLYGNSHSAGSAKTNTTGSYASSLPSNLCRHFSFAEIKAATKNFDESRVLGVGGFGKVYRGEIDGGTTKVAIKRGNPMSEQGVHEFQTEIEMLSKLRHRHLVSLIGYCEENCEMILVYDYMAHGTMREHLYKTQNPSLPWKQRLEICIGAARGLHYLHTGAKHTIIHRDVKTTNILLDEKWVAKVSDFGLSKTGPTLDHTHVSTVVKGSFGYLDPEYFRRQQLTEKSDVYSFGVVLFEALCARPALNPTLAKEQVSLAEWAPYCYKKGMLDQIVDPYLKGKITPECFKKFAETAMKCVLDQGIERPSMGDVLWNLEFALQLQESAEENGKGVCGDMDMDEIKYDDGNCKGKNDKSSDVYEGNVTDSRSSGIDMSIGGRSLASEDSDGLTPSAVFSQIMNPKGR
- Test name: biochemical
Parameter: Kd (µM)
State the answer as a number, implicitly in µM.

Tell me its Kd given O=C(O)c1cc(N(Cc2ccccc2O)Cc2cc(O)ccc2O)ccc1O [Lavendustin A] as the entry. 2.69

Kindly indicate its recorded Kd. Item: Cc1cc(Nc2ncc(F)c(NC3C4C=CC(C4)C3C(N)=O)n2)ccc1N1CCN(C)CC1 (stereo not drawn) [Cenisertib] 1.97

Report Kd, nothing else, for this compound: c1nc2nc(Nc3ccc(N4CCOCC4)cc3)nc(NC3CCCCC3)c2[nH]1 [Reversine] 1.77
